test: qHTS RealTime-Glo MT Cell Viability Assay in HEK293 cells - 32 hour (AID 1224868); conditions: RealTime-Glo luminescence; series mostly up to 76.8 µM; further: top concentration of the series differs between compounds; nearly all actives have a fitted effect of over 50% in size
Records with an inconclusive call do not appear. Calls of active or inactive are those of the source. The call rests on the fitted dose curve; in most records, active means well fitted cell-killing curve with a large enough effect in the repeat runs; inconclusive means weak or mixed curves, or effect the other way; inactive means flat fitted curve, though single readings scatter.

- CHEMICAL STRING: "CC(C)(C)OO"
  outcome: "inactive"
- CHEMICAL STRING: "O=[N+]([O-])c1c2ccccc2cc2ccccc12"
  outcome: "inactive"
- CHEMICAL STRING: "CN(C)CCc1c[nH]c2ccc(O)cc12"
  outcome: "inactive"

* * *

experiment: qHTS assay to identify small molecule agonists of the AP-1 signaling pathway - cell viability counter screen (AID 1159525); conditions: ME-180 (cervical carcinoma) AP-1-bla cells viability, ATP luminescence, 5 h; series mostly up to 76.8 µM; further: nearly all actives have a fitted effect of over 55% in size
Records with an inconclusive call do not appear. Activity calls are given as the source filed them. The call rests on the fitted dose curve.
Classes used: active, inactive

- COMPOUND: "NC(=O)CCl"
  ASSIGNED LABEL: "inactive"
- COMPOUND: "c1ccc(OCC2CO2)cc1 (stereo not given)"
  ASSIGNED LABEL: "inactive"
- COMPOUND: "CCCCOCN(C(=O)CCl)c1c(CC)cccc1CC"
  ASSIGNED LABEL: "inactive"
- COMPOUND: "CCCCCCCCCC[N+](C)(C)CCCCCCCCCC"
  ASSIGNED LABEL: "active"
- COMPOUND: "c1ccc(Nc2ccc3ccccc3c2)cc1"
  ASSIGNED LABEL: "active"

* * *

experiment: qHTS assay to identify small molecule agonists of the hypoxia (HIF-1) signaling pathway - cell viability counter screen (AID 1224844); conditions: HRE-bla ME-180 viability, CellTiter-Glo luminescence, 17 h; series mostly up to 76.8 µM; further: nearly all actives have a fitted effect of over 50% in size; further: potency means the concentration at half of the fitted maximal effect
Inconclusive results are not listed. Active and inactive are the calls of the source. Calls come from the whole dose curve.

- MOLECULE: "O=C(NC(=O)c1c(F)cccc1F)Nc1cc(Cl)c(OC(F)(F)C(F)F)c(Cl)c1"
  Potency: "inactive"
- MOLECULE: "[Cd+2].[Cl-].[Cl-]"
  Potency: "55.4 µM (active)"
- MOLECULE: "COc1cc(N)c(Cl)cc1C(=O)NC1CN2CCC1CC2 (stereo not given)"
  Potency: "inactive"
- MOLECULE: "C=COCCCl"
  Potency: "inactive"
- MOLECULE: "CC(C)C1CCC(Cc2ccc(Cl)cc2)C1(O)Cn1cncn1 (stereo not given)"
  Potency: "54.4 µM (active)"

* * *

target: Cytochrome P450 2C9 (Homo sapiens) (UniProt P11712); assay: Cytochrome P450 Family 2 Subfamily C Member 9 (CYP2C9) small molecule antagonists: luciferase reporter qHTS assay (AID 1671198); conditions: P450-Glo CYP2C9 enzyme assay, luciferin luminescence; series mostly up to 115 µM; further: nearly all actives have a fitted effect of over 50% in size
Sequence (P11712 whole entry, looked up): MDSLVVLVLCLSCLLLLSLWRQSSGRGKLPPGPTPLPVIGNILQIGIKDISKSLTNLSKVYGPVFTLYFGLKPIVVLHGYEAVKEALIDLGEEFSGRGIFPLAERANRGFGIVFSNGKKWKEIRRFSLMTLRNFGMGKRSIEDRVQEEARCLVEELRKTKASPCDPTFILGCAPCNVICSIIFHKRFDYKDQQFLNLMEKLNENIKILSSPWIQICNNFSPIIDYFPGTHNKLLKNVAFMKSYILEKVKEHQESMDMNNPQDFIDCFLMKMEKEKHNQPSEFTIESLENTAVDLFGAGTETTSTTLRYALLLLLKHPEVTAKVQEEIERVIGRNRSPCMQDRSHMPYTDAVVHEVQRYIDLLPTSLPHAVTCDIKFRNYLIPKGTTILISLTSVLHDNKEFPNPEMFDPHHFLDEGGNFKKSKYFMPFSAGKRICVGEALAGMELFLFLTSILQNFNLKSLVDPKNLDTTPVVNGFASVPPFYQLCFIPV
Inconclusive results are not listed. Calls of active or inactive are those of the source. Calls follow the shape of the dose curve; as a rule, active = well fitted inhibition curve with a large enough effect in the repeat runs; inconclusive = weak or mixed curves; inactive = no such curve, though single readings can be large or run the other way.
Possible outcomes: active, inactive

- MOLECULE: "[Hg+2].[I-].[I-]"
  TARGET OF ASSAY: "Cytochrome P450 2C9 (Homo sapiens) (UniProt P11712)"
  ASSIGNED LABEL: "active"
- MOLECULE: "S=C=Nc1cccc2ccccc12"
  TARGET OF ASSAY: "Cytochrome P450 2C9 (Homo sapiens) (UniProt P11712)"
  ASSIGNED LABEL: "active"
- MOLECULE: "COc1cc(C=O)cc2c1[C@H](COC(N)=O)[C@]1(OC(C)=O)ON2C[C@H]2[C@@H]1N2C(C)=O"
  TARGET OF ASSAY: "Cytochrome P450 2C9 (Homo sapiens) (UniProt P11712)"
  ASSIGNED LABEL: "inactive"
- MOLECULE: "Nc1c(Oc2ccccc2)cc(O)c2c1C(=O)c1ccccc1C2=O"
  TARGET OF ASSAY: "Cytochrome P450 2C9 (Homo sapiens) (UniProt P11712)"
  ASSIGNED LABEL: "active"
- MOLECULE: "Nc1ccc(Sc2ccc(N)cc2)cc1"
  TARGET OF ASSAY: "Cytochrome P450 2C9 (Homo sapiens) (UniProt P11712)"
  ASSIGNED LABEL: "active"
- MOLECULE: "O=C1NCN(c2ccccc2)C12CCN(CC1COc3ccccc3O1)CC2 (stereo not drawn)"
  TARGET OF ASSAY: "Cytochrome P450 2C9 (Homo sapiens) (UniProt P11712)"
  ASSIGNED LABEL: "active"
- MOLECULE: "CC(C)CCCCCCCOP(=O)(Oc1ccccc1)Oc1ccccc1"
  TARGET OF ASSAY: "Cytochrome P450 2C9 (Homo sapiens) (UniProt P11712)"
  ASSIGNED LABEL: "active"
- MOLECULE: "c1ccc2c(c1)OCC(C1=NCCN1)O2 (stereo not drawn)"
  TARGET OF ASSAY: "Cytochrome P450 2C9 (Homo sapiens) (UniProt P11712)"
  ASSIGNED LABEL: "inactive"
- MOLECULE: "CC(C)OC(=S)S"
  TARGET OF ASSAY: "Cytochrome P450 2C9 (Homo sapiens) (UniProt P11712)"
  ASSIGNED LABEL: "active"
- MOLECULE: "COS(=O)(=O)c1ccc(C)cc1"
  TARGET OF ASSAY: "Cytochrome P450 2C9 (Homo sapiens) (UniProt P11712)"
  ASSIGNED LABEL: "inactive"
- MOLECULE: "Cc1cc(SCc2sc(-c3ccc(C(F)(F)F)c(F)c3)nc2C)ccc1OCC(=O)O"
  TARGET OF ASSAY: "Cytochrome P450 2C9 (Homo sapiens) (UniProt P11712)"
  ASSIGNED LABEL: "active"
- MOLECULE: "CC(C)CC(C)N (stereo not drawn)"
  TARGET OF ASSAY: "Cytochrome P450 2C9 (Homo sapiens) (UniProt P11712)"
  ASSIGNED LABEL: "inactive"
- MOLECULE: "CN(C)CCc1c[nH]c2cccc(O)c12"
  TARGET OF ASSAY: "Cytochrome P450 2C9 (Homo sapiens) (UniProt P11712)"
  ASSIGNED LABEL: "active"
- MOLECULE: "CCCN(CCC)c1c([N+](=O)[O-])cc(S(N)(=O)=O)cc1[N+](=O)[O-]"
  TARGET OF ASSAY: "Cytochrome P450 2C9 (Homo sapiens) (UniProt P11712)"
  ASSIGNED LABEL: "active"
- MOLECULE: "C[C@@H]1O[C@@H](O[C@H]2C[C@@H](O)[C@]3(CO)[C@H]4[C@H](O)C[C@]5(C)[C@@H](C6=CC(=O)OC6)CC[C@]5(O)[C@@H]4CC[C@]3(O)C2)[C@H](O)[C@H](O)[C@H]1O"
  TARGET OF ASSAY: "Cytochrome P450 2C9 (Homo sapiens) (UniProt P11712)"
  ASSIGNED LABEL: "inactive"
- MOLECULE: "N#CCCSCCC#N"
  TARGET OF ASSAY: "Cytochrome P450 2C9 (Homo sapiens) (UniProt P11712)"
  ASSIGNED LABEL: "inactive"
- MOLECULE: "OC(Cc1ccccc1Cl)(Cn1cncn1)C1(Cl)CC1 (stereo not drawn)"
  TARGET OF ASSAY: "Cytochrome P450 2C9 (Homo sapiens) (UniProt P11712)"
  ASSIGNED LABEL: "active"
- MOLECULE: "C=CC(=O)N(C)C"
  TARGET OF ASSAY: "Cytochrome P450 2C9 (Homo sapiens) (UniProt P11712)"
  ASSIGNED LABEL: "inactive"
- MOLECULE: "Clc1ccc(Oc2ccccc2)cc1"
  TARGET OF ASSAY: "Cytochrome P450 2C9 (Homo sapiens) (UniProt P11712)"
  ASSIGNED LABEL: "inactive"
- MOLECULE: "CCc1cc(C)cc(CC)c1-c1c(OC(=O)C(C)(C)C)n2n(c1=O)CCOCC2"
  TARGET OF ASSAY: "Cytochrome P450 2C9 (Homo sapiens) (UniProt P11712)"
  ASSIGNED LABEL: "inactive"
- MOLECULE: "Cc1cccc(OP(=O)(Oc2cccc(C)c2)Oc2cccc(C)c2)c1"
  TARGET OF ASSAY: "Cytochrome P450 2C9 (Homo sapiens) (UniProt P11712)"
  ASSIGNED LABEL: "active"
- MOLECULE: "C=CCOC(N)=O"
  TARGET OF ASSAY: "Cytochrome P450 2C9 (Homo sapiens) (UniProt P11712)"
  ASSIGNED LABEL: "inactive"
- MOLECULE: "Oc1ccc(C(=C(Cl)Cl)c2ccc(O)cc2)cc1"
  TARGET OF ASSAY: "Cytochrome P450 2C9 (Homo sapiens) (UniProt P11712)"
  ASSIGNED LABEL: "active"
- MOLECULE: "Nc1ccc(Cl)cc1C(=O)c1ccccc1"
  TARGET OF ASSAY: "Cytochrome P450 2C9 (Homo sapiens) (UniProt P11712)"
  ASSIGNED LABEL: "active"
- MOLECULE: "C1CCC2CCCCC2C1 (stereo not drawn)"
  TARGET OF ASSAY: "Cytochrome P450 2C9 (Homo sapiens) (UniProt P11712)"
  ASSIGNED LABEL: "inactive"
- MOLECULE: "COP(=O)(OC)SCn1c(=O)oc2cc(Cl)cnc21"
  TARGET OF ASSAY: "Cytochrome P450 2C9 (Homo sapiens) (UniProt P11712)"
  ASSIGNED LABEL: "active"
- MOLECULE: "COc1cccc2c1C(=O)c1c(O)c3c(c(O)c1C2=O)C[C@@](O)(C(=O)CO)CC3OC1CC(N2CCOC(OC)C2)C(O)C(C)O1 (stereo partly drawn)"
  TARGET OF ASSAY: "Cytochrome P450 2C9 (Homo sapiens) (UniProt P11712)"
  ASSIGNED LABEL: "active"
- MOLECULE: "Cc1cc(Cl)ccc1O[C@H](C)C(=O)O"
  TARGET OF ASSAY: "Cytochrome P450 2C9 (Homo sapiens) (UniProt P11712)"
  ASSIGNED LABEL: "inactive"
- MOLECULE: "COC(=O)N(C(=O)N1CO[C@@]2(C(=O)OC)Cc3cc(Cl)ccc3C2=N1)c1ccc(OC(F)(F)F)cc1"
  TARGET OF ASSAY: "Cytochrome P450 2C9 (Homo sapiens) (UniProt P11712)"
  ASSIGNED LABEL: "active"
- MOLECULE: "N#Cc1ccc(O)cc1"
  TARGET OF ASSAY: "Cytochrome P450 2C9 (Homo sapiens) (UniProt P11712)"
  ASSIGNED LABEL: "inactive"
- MOLECULE: "Oc1ccc(C2(c3ccc(O)cc3)c3ccccc3-c3ccccc32)cc1"
  TARGET OF ASSAY: "Cytochrome P450 2C9 (Homo sapiens) (UniProt P11712)"
  ASSIGNED LABEL: "active"
- MOLECULE: "CC(Cc1ccc(C(C)(C)C)cc1)CN1C[C@@H](C)O[C@@H](C)C1 (stereo partly drawn)"
  TARGET OF ASSAY: "Cytochrome P450 2C9 (Homo sapiens) (UniProt P11712)"
  ASSIGNED LABEL: "active"
- MOLECULE: "O=C1C=CC(=O)c2ccccc21"
  TARGET OF ASSAY: "Cytochrome P450 2C9 (Homo sapiens) (UniProt P11712)"
  ASSIGNED LABEL: "active"
- MOLECULE: "CC(C)(C)c1cc([N+](=O)[O-])cc(C(C)(C)C)c1O"
  TARGET OF ASSAY: "Cytochrome P450 2C9 (Homo sapiens) (UniProt P11712)"
  ASSIGNED LABEL: "active"
- MOLECULE: "CC(C)(O)c1cnn2c(-c3ccc(F)c(-c4c(F)cccc4C#N)c3)cnc2n1"
  TARGET OF ASSAY: "Cytochrome P450 2C9 (Homo sapiens) (UniProt P11712)"
  ASSIGNED LABEL: "active"
- MOLECULE: "CC(C)CC(C)Nc1ccc(Nc2ccccc2)cc1 (stereo not drawn)"
  TARGET OF ASSAY: "Cytochrome P450 2C9 (Homo sapiens) (UniProt P11712)"
  ASSIGNED LABEL: "active"
- MOLECULE: "CC(C)(c1ccc(O)c(-c2ccccc2)c1)c1ccc(O)c(-c2ccccc2)c1"
  TARGET OF ASSAY: "Cytochrome P450 2C9 (Homo sapiens) (UniProt P11712)"
  ASSIGNED LABEL: "active"
- MOLECULE: "Nc1ccc(Cc2ccc(N)c(Cl)c2)cc1Cl"
  TARGET OF ASSAY: "Cytochrome P450 2C9 (Homo sapiens) (UniProt P11712)"
  ASSIGNED LABEL: "active"

Value source: PubChem BioAssay (Tox21)
